Where these numbers come from: paper PMC8400955

assay: Single-dose PK and bioavailability of ZB716 in rats; assay type: in vivo; conditions: male, Sprague Dawley, rat, plasma; single dose, PO 6 mg/kg/day, M; read-out: Tmax (median)

compound	readout.units	Tmax
C[C@]12CC[C@@H]3c4ccc(B(O)O)cc4C[C@@H](CCCCCCCCC[S+]([O-])CCCC(F)(F)C(F)(F)F)[C@H]3[C@@H]1CC[C@@H]2O (stereo partly shown) [ZB716, fulvestrant-3-boronic acid]	min	30

###

experiment: 4-week repeat-dose toxicity/TK study in dogs; format: in vivo, beagle dogs; settings: male, beagle, dog, plasma, po, 25 mg/kg/day, day 28, PO 25 mg/kg/day, M
property.measured: Cmax (ng/mL)

compound	readout.units	recorded.value
C[C@]12CC[C@@H]3c4ccc(B(O)O)cc4C[C@@H](CCCCCCCCC[S+]([O-])CCCC(F)(F)C(F)(F)F)[C@H]3[C@@H]1CC[C@@H]2O (stereo partly shown) [ZB716, fulvestrant-3-boronic acid]	ng/mL	1390

###

experiment: 4-week repeat-dose toxicity/TK study in dogs; type: in vivo, beagle dogs; conditions: male, beagle, dog, plasma, po, 100 mg/kg/day, day 1, PO 100 mg/kg/day, M
property.measured: Cmax

compound	property.measured	recorded.value
C[C@]12CC[C@@H]3c4ccc(B(O)O)cc4C[C@@H](CCCCCCCCC[S+]([O-])CCCC(F)(F)C(F)(F)F)[C@H]3[C@@H]1CC[C@@H]2O (stereo partly shown)	Cmax	1400 ng/mL

###

experiment: 4-week repeat-dose toxicity/TK study in dogs; format: in vivo, beagle dogs; conditions: male, beagle, dog, plasma, po, 100 mg/kg/day, day 1, PO 100 mg/kg/day, M
property.measured: AUC(0-t) (µg·h/mL)

compound	recorded.value
C[C@]12CC[C@@H]3c4ccc(B(O)O)cc4C[C@@H](CCCCCCCCC[S+]([O-])CCCC(F)(F)C(F)(F)F)[C@H]3[C@@H]1CC[C@@H]2O (stereo partly shown) [ZB716, fulvestrant-3-boronic acid]	4.57

###

experiment: Bidirectional permeability across Caco-2 cell monolayers; assay type: in vitro ADME; conditions: human; Caco-2, 1 μM

molecule	efflux ratio at 120 min, 1 μM
C[C@]12CC[C@@H]3c4ccc(B(O)O)cc4C[C@@H](CCCCCCCCC[S+]([O-])CCCC(F)(F)C(F)(F)F)[C@H]3[C@@H]1CC[C@@H]2O (stereo partly shown) [ZB716, fulvestrant-3-boronic acid]	> 0.935

###

assay: 7-day repeated-dose PK in rats; type: in vivo, Sprague Dawley rats; conditions: female, Sprague Dawley (Crl: CD (SD)), rat, plasma, po, 400 mg/kg/day, day 1, PO 400 mg/kg/day, F; read-out: Tmax (median)

compound	readout.units	Tmax
C[C@]12CC[C@@H]3c4ccc(B(O)O)cc4C[C@@H](CCCCCCCCC[S+]([O-])CCCC(F)(F)C(F)(F)F)[C@H]3[C@@H]1CC[C@@H]2O (stereo partly shown)	h	8

###

molecular target: UniProt P11712; assay: CYP phenotyping, recombinant CYP2C9; conditions: human
Sequence (P11712 whole entry): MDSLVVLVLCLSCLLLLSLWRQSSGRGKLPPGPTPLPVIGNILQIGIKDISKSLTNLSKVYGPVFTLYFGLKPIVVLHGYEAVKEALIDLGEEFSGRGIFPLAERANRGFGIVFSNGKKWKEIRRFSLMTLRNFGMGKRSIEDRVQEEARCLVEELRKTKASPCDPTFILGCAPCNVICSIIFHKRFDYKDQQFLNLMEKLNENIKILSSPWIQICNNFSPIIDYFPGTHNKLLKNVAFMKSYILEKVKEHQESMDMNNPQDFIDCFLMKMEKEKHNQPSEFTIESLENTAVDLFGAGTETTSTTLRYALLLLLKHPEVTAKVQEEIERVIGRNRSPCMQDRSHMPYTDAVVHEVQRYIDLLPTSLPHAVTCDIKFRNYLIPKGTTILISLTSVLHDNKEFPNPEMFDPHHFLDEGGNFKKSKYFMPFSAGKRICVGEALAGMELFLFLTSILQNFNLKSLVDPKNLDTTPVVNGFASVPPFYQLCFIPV
property.measured: half-life at 2 µM (min)

molecule	readout.units	recorded.value
C[C@]12CC[C@@H]3c4ccc(B(O)O)cc4C[C@@H](CCCCCCCCC[S+]([O-])CCCC(F)(F)C(F)(F)F)[C@H]3[C@@H]1CC[C@@H]2O (stereo partly shown)	min	18.6

###

experiment: Bidirectional permeability across Caco-2 cell monolayers; assay type: in vitro ADME; settings: human, Caco-2, Caco-2, 1 μM; read-out: Recovery B to A
property.measured: recovery at 120 min, 1 μM (%)

molecule	property.measured	recorded.value
C[C@]12CC[C@@H]3c4ccc(B(O)O)cc4C[C@@H](CCCCCCCCC[S+]([O-])CCCC(F)(F)C(F)(F)F)[C@H]3[C@@H]1CC[C@@H]2O (stereo partly shown) [ZB716, fulvestrant-3-boronic acid]	recovery at 120 min, 1 μM	66.5

###

test system: CYP3A4; test: CYP induction (enzyme activity) in cryopreserved human hepatocytes, CYP3A4; format: in vitro ADME; conditions: human, plated cryopreserved human hepatocytes, donor three, 5 µM
property.measured: fold induction at 72 h, 5 µM

compound	recorded.value
C[C@]12CC[C@@H]3c4ccc(B(O)O)cc4C[C@@H](CCCCCCCCC[S+]([O-])CCCC(F)(F)C(F)(F)F)[C@H]3[C@@H]1CC[C@@H]2O (stereo partly shown)	0.513

###

test: Bidirectional permeability across Caco-2 cell monolayers; assay type: in vitro ADME; conditions: human; Caco-2, 15 μM

compound	Papp B→A at 120 min, 15 μM (×10⁻⁶ cm/s)
C[C@]12CC[C@@H]3c4ccc(B(O)O)cc4C[C@@H](CCCCCCCCC[S+]([O-])CCCC(F)(F)C(F)(F)F)[C@H]3[C@@H]1CC[C@@H]2O (stereo partly shown)	0.534

###

Experiment: 4-week repeat-dose toxicity/TK study in dogs
Format: in vivo, beagle dogs
Conditions: female, beagle, dog, plasma, po, 100 mg/kg/day, day 1, PO 100 mg/kg/day, F
Description: The TK of ZB716 was investigated in a 4-week repeat-dose toxicity study in dogs. […] The plasma concentration of ZB716 was measured at various times up through to 24 h post-dose on days 1 and 28. […] Five microliters of diluted supernatant was injected into the LC–MS/MS system (Shimadzu LC30AD HPLC system with a SynergiTM 4 μm Fusion-RP 80 Å (50 × 2 mm) column using gradient elution and a Triple Quad 5500 mass spectrometer) for quantitative analysis. […]

compound	AUC(0-t) (ng·h/mL)
C[C@]12CC[C@@H]3c4ccc(B(O)O)cc4C[C@@H](CCCCCCCCC[S+]([O-])CCCC(F)(F)C(F)(F)F)[C@H]3[C@@H]1CC[C@@H]2O (stereo partly shown)	4490

###

system: CYP1A2; test: CYP induction (enzyme activity) in cryopreserved human hepatocytes, CYP1A2; details: human, plated cryopreserved human hepatocytes, Fold Induction, donor two, 5 µM
property.measured: fold induction at 72 h, 5 µM

molecule	recorded.value
C[C@]12CC[C@@H]3c4ccc(B(O)O)cc4C[C@@H](CCCCCCCCC[S+]([O-])CCCC(F)(F)C(F)(F)F)[C@H]3[C@@H]1CC[C@@H]2O (stereo partly shown) [ZB716, fulvestrant-3-boronic acid]	3.44

###

assay: 4-week repeat-dose toxicity/TK study in rats; assay type: in vivo, Sprague Dawley rats; details: female, Sprague Dawley (Crl: CD (SD)), rat, plasma, po, 25 mg/kg/day, day 1, PO 25 mg/kg/day, Female

molecule	Cmax [ng/mL]
C[C@]12CC[C@@H]3c4ccc(B(O)O)cc4C[C@@H](CCCCCCCCC[S+]([O-])CCCC(F)(F)C(F)(F)F)[C@H]3[C@@H]1CC[C@@H]2O (stereo partly shown) [ZB716, fulvestrant-3-boronic acid]	1310

###

test: 7-day repeated-dose PK in rats; assay type: in vivo, Sprague Dawley rats; conditions: male, Sprague Dawley, rat, plasma, po, 100 mg/kg/day, day 1, PO 100 mg/kg/day, M

compound	readout.units	AUC(0-t)
C[C@]12CC[C@@H]3c4ccc(B(O)O)cc4C[C@@H](CCCCCCCCC[S+]([O-])CCCC(F)(F)C(F)(F)F)[C@H]3[C@@H]1CC[C@@H]2O (stereo partly shown)	ng·h/mL	11800

###

assay: 4-week repeat-dose toxicity/TK study in rats; format: in vivo, Sprague Dawley rats; settings: male, Sprague Dawley (Crl: CD (SD)), rat, plasma, po, 25 mg/kg/day, day 1, PO 25 mg/kg/day, Male

molecule	Tmax
C[C@]12CC[C@@H]3c4ccc(B(O)O)cc4C[C@@H](CCCCCCCCC[S+]([O-])CCCC(F)(F)C(F)(F)F)[C@H]3[C@@H]1CC[C@@H]2O (stereo partly shown)	30 min

###

assay: Single-dose PK and bioavailability of ZB716 in rats; format: in vivo; settings: female, Sprague Dawley, rat, plasma; single dose, PO 400 mg/kg/day, F
property.measured: AUC(0-t) (µg·h/mL)

molecule	property.measured	readout.units	recorded.value
C[C@]12CC[C@@H]3c4ccc(B(O)O)cc4C[C@@H](CCCCCCCCC[S+]([O-])CCCC(F)(F)C(F)(F)F)[C@H]3[C@@H]1CC[C@@H]2O (stereo partly shown) [ZB716, fulvestrant-3-boronic acid]	AUC(0-t)	µg·h/mL	55.6

###

assay: Plasma protein binding by equilibrium dialysis, human; type: in vitro ADME; details: plasma (EDTA-K2 as anticoagulant), pH 7.4, 0.1 μM

compound	recovery at 6 h, 0.1 μM
C[C@]12CC[C@@H]3c4ccc(B(O)O)cc4C[C@@H](CCCCCCCCC[S+]([O-])CCCC(F)(F)C(F)(F)F)[C@H]3[C@@H]1CC[C@@H]2O (stereo partly shown)	< 69.1%

###

test: 4-week repeat-dose toxicity/TK study in dogs; format: in vivo, beagle dogs; settings: female, beagle, dog, plasma, po, 200 mg/kg/day, day 1, PO 200 mg/kg/day, F

compound	readout.units	Cmax
C[C@]12CC[C@@H]3c4ccc(B(O)O)cc4C[C@@H](CCCCCCCCC[S+]([O-])CCCC(F)(F)C(F)(F)F)[C@H]3[C@@H]1CC[C@@H]2O (stereo partly shown)	µg/mL	0.583
